Reference source: patent US6680054B1

- TARGET_OF_ASSAY: whole virus influenza neuraminidase, A/NWS/Tokyo/3/67/H1N2 (Influenza A virus, UniProt P06820)
- Sequence (P06820 whole entry, looked up): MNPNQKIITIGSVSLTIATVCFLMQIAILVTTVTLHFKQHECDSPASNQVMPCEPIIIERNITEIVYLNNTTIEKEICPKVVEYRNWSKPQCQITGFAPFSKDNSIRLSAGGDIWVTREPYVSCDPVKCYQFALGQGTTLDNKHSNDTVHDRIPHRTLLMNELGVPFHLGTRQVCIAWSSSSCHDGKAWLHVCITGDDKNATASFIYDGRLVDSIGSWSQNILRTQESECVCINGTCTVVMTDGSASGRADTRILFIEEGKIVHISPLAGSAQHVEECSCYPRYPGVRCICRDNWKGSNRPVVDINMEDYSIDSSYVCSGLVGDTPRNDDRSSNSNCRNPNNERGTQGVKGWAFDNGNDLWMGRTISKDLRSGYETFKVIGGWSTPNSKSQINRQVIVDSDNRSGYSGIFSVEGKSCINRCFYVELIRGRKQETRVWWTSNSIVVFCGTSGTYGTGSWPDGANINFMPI
- EXPERIMENTAL_CONDITIONS: read-out: inhibition constants (IC50), NWS/Tokyo
pIC50: −log10 of the molar value.
MEASURE: pIC50

SMILES_RECORD: CC(=O)N[C@H]1[C@H]([C@H](O)[C@H](O)CO)OC(C(=O)O)=C[C@@H]1O
VAL: 5.22
